These measurements were taken from patent US20100004234A1.

- measuredTarget: PDGFRα (Homo sapiens)
- Sequence (P16234 24-1089): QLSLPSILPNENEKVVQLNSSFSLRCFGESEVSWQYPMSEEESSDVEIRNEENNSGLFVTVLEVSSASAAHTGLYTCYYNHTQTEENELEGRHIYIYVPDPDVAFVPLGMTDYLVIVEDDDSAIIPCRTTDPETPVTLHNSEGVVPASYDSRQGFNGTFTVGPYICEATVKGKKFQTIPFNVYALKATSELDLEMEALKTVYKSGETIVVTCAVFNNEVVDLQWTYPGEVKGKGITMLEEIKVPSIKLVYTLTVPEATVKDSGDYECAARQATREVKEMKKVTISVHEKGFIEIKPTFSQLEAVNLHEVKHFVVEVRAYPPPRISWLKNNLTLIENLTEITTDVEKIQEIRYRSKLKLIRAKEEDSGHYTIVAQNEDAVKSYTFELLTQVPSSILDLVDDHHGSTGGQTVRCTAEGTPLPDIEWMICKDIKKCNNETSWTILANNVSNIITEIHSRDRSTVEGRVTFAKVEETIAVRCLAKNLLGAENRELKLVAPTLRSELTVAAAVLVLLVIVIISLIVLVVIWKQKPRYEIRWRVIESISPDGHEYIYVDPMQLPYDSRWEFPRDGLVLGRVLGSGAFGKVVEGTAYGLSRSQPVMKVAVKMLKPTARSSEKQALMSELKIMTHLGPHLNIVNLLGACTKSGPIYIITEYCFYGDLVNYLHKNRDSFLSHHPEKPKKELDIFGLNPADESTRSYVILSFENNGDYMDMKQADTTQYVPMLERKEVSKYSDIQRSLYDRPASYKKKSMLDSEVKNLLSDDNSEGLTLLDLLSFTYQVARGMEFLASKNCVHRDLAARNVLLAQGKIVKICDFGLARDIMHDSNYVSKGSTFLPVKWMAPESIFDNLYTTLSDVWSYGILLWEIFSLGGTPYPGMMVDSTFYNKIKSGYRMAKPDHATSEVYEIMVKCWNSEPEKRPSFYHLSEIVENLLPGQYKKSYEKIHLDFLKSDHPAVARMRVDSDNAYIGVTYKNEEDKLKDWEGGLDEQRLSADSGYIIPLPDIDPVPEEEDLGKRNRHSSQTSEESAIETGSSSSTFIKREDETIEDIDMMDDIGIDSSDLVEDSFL
- assayName: Time-dependent kinase inhibition kinetics (progress curve)
- conditionInfo: 1 mM ATP
- Protocol: Typically, one measures the increase in inhibition of protein kinase activity in the presence of inhibitor over time. […] In a second method, the time dependent loss of activity is measured as “progress curves” that measure and analyze product formed (e.g. ADP) versus time (Morrison & Walsh, Adv. Enzymol Relat Areas Mol. Biol. 1988, 61, 201-301). […]
endpointName: pKi
Field pKi (float): negative decimal logarithm of the concentration in molar.

Query :: GET /values?readout=pKi&item= `COc1cc(O)c2c(c1)[C@H]1O[C@@H]1C[C@H](O)[C@H](O)C(=O)/C=C\C[C@H](C)OC2=O`
Result :: 5.82

====

- measuredTarget: MEK1 (Homo sapiens, UniProt Q02750)
- Sequence (Q02750 whole entry): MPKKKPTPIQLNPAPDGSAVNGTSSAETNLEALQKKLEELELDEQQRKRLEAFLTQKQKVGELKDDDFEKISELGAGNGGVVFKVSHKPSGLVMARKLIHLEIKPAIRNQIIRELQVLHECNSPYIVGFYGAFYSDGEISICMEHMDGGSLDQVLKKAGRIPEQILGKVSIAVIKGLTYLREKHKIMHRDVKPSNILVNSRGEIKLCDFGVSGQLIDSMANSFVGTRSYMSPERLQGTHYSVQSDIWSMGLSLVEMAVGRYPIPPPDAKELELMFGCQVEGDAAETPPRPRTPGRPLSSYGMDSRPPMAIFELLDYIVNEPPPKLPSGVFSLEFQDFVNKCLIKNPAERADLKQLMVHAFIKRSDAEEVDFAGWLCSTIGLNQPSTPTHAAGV
- assayName: Time-dependent kinase inhibition kinetics (pre-incubation, [32P]ATP filter binding)
- conditionInfo: 1 mM ATP
endpointName: Ki (nM)
Give a bare numeral; the unit nM is implied.

Query :: What Ki appears in the records for this compound with MEK1 (Homo sapiens, UniProt Q02750)? `COc1cc(O)c2c(c1)[C@H]1O[C@@H]1C[C@H](O)[C@H](O)C(=O)/C=C\C[C@H](C)OC2=O`
Result :: 19

====

- Tested on: HT29 (Human colon, B-Raf V599E)
- assayName: Cell proliferation assay (Cell Titer Glo)
- Format: cell-based
- conditionInfo: HT29 (Human colon, B-Raf V599E); Tables 1 and 4; read-out: Kinase Inhibitor IC50
endpointName: pIC50
Field pIC50 (float): negative decimal logarithm of the concentration in molar.

Query :: GET /values?readout=pIC50&item= `COc1cccc(-c2cc(=O)c3ccccc3o2)c1N`
Result :: 5.26

====

- Tested on: DU4475 (Human breast, B-Raf V599E)
- assayName: Cell proliferation assay (Cell Titer Glo)
- Assay type: cell-based
- conditionInfo: DU4475 (Human breast, B-Raf V599E); Tables 1 and 4; read-out: Kinase Inhibitor IC50
endpointName: pIC50
Field pIC50 (float): negative decimal logarithm of the concentration in molar.

Query :: What pIC50 appears in the records for this compound with DU4475 (Human breast, B-Raf V599E)? COc1cccc(-c2cc(=O)c3ccccc3o2)c1N [PD 98059]
Result :: 4.25

====

- System: DU4475 (Human breast, B-Raf V599E)
- assayName: Cell proliferation assay (Cell Titer Glo)
- Format: cell-based
- conditionInfo: DU-4475; DU4475 (Human breast, B-Raf V599E); Tables 1 and 4; read-out: Kinase Inhibitor IC50
endpointName: IC50 (µM)
Give a bare numeral; the unit µM is implied.

Query :: GET /values?readout=IC50&item= `CCN(CC)CCNC(=O)c1c(C)[nH]c(/C=C2\C(=O)Nc3ccc(F)cc32)c1C`
Result :: 4

====

- Test system: P815 (Mouse mastocytoma, KIT D814Y)
- assayName: Cell proliferation assay (Cell Titer Glo)
- Type: cell-based
- conditionInfo: Mus musculus, P815, read-out: Kinase Inhibitor IC50
A collection of compounds and their measured IC50
Give a bare numeral; the unit nM is implied.

CNC(=O)c1cc(Oc2ccc(NC(=O)Nc3ccc(Cl)c(C(F)(F)F)c3)cc2)ccn1: 310

Lab note: next compound to report on.
Query :: GET /values?readout=IC50&item= `COc1cc(O)c2c(c1)[C@H]1O[C@@H]1C[C@H](O)[C@H](O)C(=O)/C=C\C[C@H](C)OC2=O`
Result :: 310

====

- measuredTarget: KDR (VEGFR2) (Homo sapiens, UniProt P35968)
- Sequence (P35968 20-1356): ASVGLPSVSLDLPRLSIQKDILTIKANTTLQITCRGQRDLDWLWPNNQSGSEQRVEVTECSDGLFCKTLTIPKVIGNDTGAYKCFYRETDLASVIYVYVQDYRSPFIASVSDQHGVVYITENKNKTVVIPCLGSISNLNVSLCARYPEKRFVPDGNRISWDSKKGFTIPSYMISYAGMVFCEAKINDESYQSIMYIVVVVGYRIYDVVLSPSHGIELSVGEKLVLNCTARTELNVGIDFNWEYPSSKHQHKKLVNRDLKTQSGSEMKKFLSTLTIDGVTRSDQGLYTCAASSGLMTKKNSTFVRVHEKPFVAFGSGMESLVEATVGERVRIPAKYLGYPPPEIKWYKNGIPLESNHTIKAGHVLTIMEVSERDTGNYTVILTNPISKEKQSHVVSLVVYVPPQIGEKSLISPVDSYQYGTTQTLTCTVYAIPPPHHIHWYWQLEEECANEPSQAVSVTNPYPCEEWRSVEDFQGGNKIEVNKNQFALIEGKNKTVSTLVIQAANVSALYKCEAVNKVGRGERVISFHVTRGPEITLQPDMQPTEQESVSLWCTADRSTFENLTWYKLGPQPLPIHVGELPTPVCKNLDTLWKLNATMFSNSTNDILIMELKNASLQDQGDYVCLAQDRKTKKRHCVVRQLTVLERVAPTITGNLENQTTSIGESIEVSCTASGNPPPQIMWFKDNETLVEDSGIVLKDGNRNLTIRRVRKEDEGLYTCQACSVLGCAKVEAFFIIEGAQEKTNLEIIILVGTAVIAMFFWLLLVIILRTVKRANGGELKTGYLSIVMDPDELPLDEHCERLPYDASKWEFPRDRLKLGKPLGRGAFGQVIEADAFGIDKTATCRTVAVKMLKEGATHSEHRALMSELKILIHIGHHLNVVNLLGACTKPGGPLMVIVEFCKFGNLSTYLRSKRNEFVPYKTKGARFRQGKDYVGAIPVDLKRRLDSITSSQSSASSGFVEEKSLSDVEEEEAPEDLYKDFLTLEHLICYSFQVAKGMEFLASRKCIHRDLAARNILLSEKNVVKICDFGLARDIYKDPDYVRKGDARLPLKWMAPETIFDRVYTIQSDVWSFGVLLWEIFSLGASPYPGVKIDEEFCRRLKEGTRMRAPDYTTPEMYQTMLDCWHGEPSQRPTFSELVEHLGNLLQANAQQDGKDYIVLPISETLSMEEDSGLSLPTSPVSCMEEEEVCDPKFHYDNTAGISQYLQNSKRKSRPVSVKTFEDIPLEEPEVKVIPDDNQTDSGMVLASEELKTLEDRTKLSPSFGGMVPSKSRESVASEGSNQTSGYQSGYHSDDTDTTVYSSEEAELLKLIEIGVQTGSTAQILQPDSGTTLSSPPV
- assayName: Time-dependent kinase inhibition kinetics (progress curve)
- Assay type: biochemical
- conditionInfo: KDR (VEGFR2); 5 mM ATP
endpointName: Ki (µM)
Give a bare numeral; the unit µM is implied.

Query :: GET /values?readout=Ki&item= `COc1cc(O)c2c(c1)[C@H]1O[C@@H]1C[C@H](O)[C@H](O)C(=O)/C=C\C[C@H](C)OC2=O`
Result :: 0.014

====

A collection of compounds and their measured IC50
- System: HT29 (Human colon, B-Raf V599E)
- assayName: Cell proliferation assay (Cell Titer Glo)
- Type: cell-based
- conditionInfo: HT-29; Table 7; HT29 human colon cancer, V600E B-Raf; read-out: Cell Line IC50 HT29
Give a bare numeral; the unit µM is implied.

Previously resolved entries follow.
C[C@H]1C/C=C\C(=O)[C@@H](O)[C@@H](O)C[C@H]2O[C@@H]2c2cc(OCC3CCCN(C)C3)cc(O)c2C(=O)O1 (stereo partly drawn): 0.6
C[C@H]1C/C=C\C(=O)[C@@H](O)[C@@H](O)C[C@H]2O[C@@H]2c2cc(O)cc(O)c2C(=O)O1: 0.1

Lab note: next compound to report on.
Query :: What IC50 appears in the records for this compound with HT29 (Human colon, B-Raf V599E)? `COc1cc(O)c2c(c1)[C@H]1O[C@@H]1C[C@H](O)[C@H](O)C(=O)/C=C\C[C@H](C)OC2=O`
Result :: 0.24

====

- measuredTarget: GSK3β (Homo sapiens, UniProt P49841)
- Sequence (P49841 whole entry): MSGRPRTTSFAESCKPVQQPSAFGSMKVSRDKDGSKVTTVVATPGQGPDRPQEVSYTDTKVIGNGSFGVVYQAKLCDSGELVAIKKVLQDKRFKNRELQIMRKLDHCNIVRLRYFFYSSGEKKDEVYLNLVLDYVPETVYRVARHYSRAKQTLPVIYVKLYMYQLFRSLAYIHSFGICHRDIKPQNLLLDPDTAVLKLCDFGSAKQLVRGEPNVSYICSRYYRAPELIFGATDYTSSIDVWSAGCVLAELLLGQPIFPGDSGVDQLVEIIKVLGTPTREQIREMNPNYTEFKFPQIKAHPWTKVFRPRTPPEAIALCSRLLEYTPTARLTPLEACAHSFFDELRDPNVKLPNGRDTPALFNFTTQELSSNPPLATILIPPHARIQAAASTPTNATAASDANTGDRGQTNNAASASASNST
- assayName: Time-dependent kinase inhibition kinetics (progress curve)
endpointName: Ki (µM)
Give a bare numeral; the unit µM is implied.

Query :: GET /values?readout=Ki&item= `COc1cc(O)c2c(c1)[C@H]1O[C@@H]1C[C@H](O)[C@H](O)C(=O)/C=C\C[C@H](C)OC2=O`
Result :: 370

====

- Test system: ASZ001 (Basal cell carcinoma)
- assayName: Cell proliferation assay (Cell Titer Glo)
- Type: cell-based
- conditionInfo: BCC cell line ASZ001 in culture; read-out: IC50
pIC50: −log10 of the molar value.
endpointName: pIC50

CCOC(=O)c1ccc(C#Cc2ccc3c(c2)C(C)(C)CCS3)nc1: ~5.00

Query :: GET /values?readout=pIC50&item= `COc1cc(O)c2c(c1)[C@H]1O[C@@H]1C[C@H](O)[C@H](O)C(=O)/C=C\C[C@H](C)OC2=O`
Result :: ~7.00

====

- measuredTarget: ERK2 (UniProt P28482)
- Format: biochemical
- Parameters: "the target Cys 172 residue
- conditionInfo: Table 7; read-out: ERK2 Inhibition Ki
endpointName: Ki

Query :: What Ki appears in the records for this molecule with ERK2 (UniProt P28482)? `C[C@H]1C/C=C\C(=O)[C@@H](O)[C@@H](O)C[C@H]2O[C@@H]2c2cc(O)cc(O)c2C(=O)O1`
Result :: 2200 nM

====

- measuredTarget: UniProt:P17948
- assayName: Time-dependent kinase inhibition kinetics (progress curve)
- conditionInfo: 1 mM ATP, significant decrease of enzyme activity over time without inhibitor
endpointName: Ki (nM)
Give a bare numeral; the unit nM is implied.

Query :: GET /values?readout=Ki&item= `COc1cc(O)c2c(c1)[C@H]1O[C@@H]1C[C@H](O)[C@H](O)C(=O)/C=C\C[C@H](C)OC2=O`
Result :: 110

====

- System: HT29 (Human colon, B-Raf V599E)
- assayName: Cell proliferation assay (Cell Titer Glo)
- Format: cell-based
- conditionInfo: Homo sapiens, HT-29, read-out: Kinase Inhibitor IC50
endpointName: IC50 (µM)
Give a bare numeral; the unit µM is implied.

CNC(=O)c1cc(Oc2ccc(NC(=O)Nc3ccc(Cl)c(C(F)(F)F)c3)cc2)ccn1: 4.7

Lab note: next compound to report on.
Query :: GET /values?readout=IC50&item= `COc1cc(O)c2c(c1)[C@H]1O[C@@H]1C[C@H](O)[C@H](O)C(=O)/C=C\C[C@H](C)OC2=O`
Result :: 0.1

====

- Tested on: SKOV3 (ovarian cancer cell line, wild-type B-Raf)
- assayName: Cell proliferation assay
- Format: cell-based
- conditionInfo: Homo sapiens, SK-OV-3, read-out: Cell Line IC50 SKOV3
pIC50: −log10 of the molar value.
endpointName: pIC50

Query :: GET /values?readout=pIC50&item= `COc1cc(O)c2c(c1)[C@H]1O[C@@H]1C[C@H](O)[C@H](O)C(=O)/C=C\C[C@H](C)OC2=O`
Result :: ~5.40

====

A collection of compounds and their measured IC50
- Tested on: MV4-11 (Human leukemia Flt3-ITD)
- assayName: Cell proliferation assay (Cell Titer Glo)
- Format: cell-based
- conditionInfo: Homo sapiens, MV4-11, read-out: Kinase Inhibitor IC50
Give a bare numeral; the unit nM is implied.

CNC(=O)c1cc(Oc2ccc(NC(=O)Nc3ccc(Cl)c(C(F)(F)F)c3)cc2)ccn1 [BAY 43-9006, Sorafenib]: 2.3

Query :: GET /values?readout=IC50&item= COc1cc(O)c2c(c1)[C@H]1O[C@@H]1C[C@H](O)[C@H](O)C(=O)/C=C\C[C@H](C)OC2=O [Hypothemycin, hypothemycin]
Result :: 5.5

====

- measuredTarget: TrkA (Homo sapiens)
- Sequence (P04629 33-796): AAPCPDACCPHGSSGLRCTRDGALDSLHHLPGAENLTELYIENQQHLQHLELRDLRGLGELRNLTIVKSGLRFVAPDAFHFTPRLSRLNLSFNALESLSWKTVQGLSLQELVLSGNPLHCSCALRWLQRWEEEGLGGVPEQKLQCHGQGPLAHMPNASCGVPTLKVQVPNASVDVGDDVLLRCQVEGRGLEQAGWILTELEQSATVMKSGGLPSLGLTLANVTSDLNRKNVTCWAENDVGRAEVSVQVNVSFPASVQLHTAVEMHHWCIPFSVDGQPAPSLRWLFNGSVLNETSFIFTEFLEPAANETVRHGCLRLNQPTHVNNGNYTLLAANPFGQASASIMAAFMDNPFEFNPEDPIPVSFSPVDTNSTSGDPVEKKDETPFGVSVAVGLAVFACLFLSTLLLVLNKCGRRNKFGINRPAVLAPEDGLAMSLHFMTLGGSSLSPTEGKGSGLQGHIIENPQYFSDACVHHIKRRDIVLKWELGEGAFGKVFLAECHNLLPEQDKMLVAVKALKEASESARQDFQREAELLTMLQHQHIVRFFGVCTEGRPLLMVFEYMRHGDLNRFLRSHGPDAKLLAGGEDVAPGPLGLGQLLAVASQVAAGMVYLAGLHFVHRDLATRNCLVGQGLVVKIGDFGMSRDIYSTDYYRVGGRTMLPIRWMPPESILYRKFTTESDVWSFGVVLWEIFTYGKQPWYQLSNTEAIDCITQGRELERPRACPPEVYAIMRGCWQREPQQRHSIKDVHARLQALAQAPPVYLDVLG
- assayName: Time-dependent kinase inhibition kinetics (progress curve)
- Assay type: biochemical
- conditionInfo: TRKA; reversible inhibition competitive with ATP
endpointName: Ki
Kindly write the number and append the unit.

Query :: GET /values?readout=Ki&item= COc1cc(O)c2c(c1)[C@H]1O[C@@H]1C[C@H](O)[C@H](O)C(=O)/C=C\C[C@H](C)OC2=O [Hypothemycin, hypothemycin]
Result :: 2200 nM
